Data origin, for the record: patent US20260285888A1

protocol_text: Study for confirmation of conversion to brexpiprazole in a buffer (stability of the evaluation compounds)
Assay type: physicochemical
assay_context: in buffer; 60-minute reaction sample; average of duplicate
# Concentration of brexpiprazole formed values compiled below
State the answer as a number, implicitly in µM.

compound: CC1(C)OCC(C(=O)OCOP(=O)([O-])OC[N+]2(CCCCOc3ccc4ccc(=O)[nH]c4c3)CCN(c3cccc4sccc34)CC2)CO1 [EX 67]
Concentration of brexpiprazole formed, µM: 0.00
--
compound: CCCCCCCC(=O)OC(C)OP(=O)([O-])OC[N+]1(CCCCOc2ccc3ccc(=O)[nH]c3c2)CCN(c2cccc3sccc23)CC1 (stereo not drawn) [EX 26]
Concentration of brexpiprazole formed, µM: 0.00

Lab note: next compound to report on.
Task item: Determine from records and report Concentration of brexpiprazole formed for O=C(OCCCCCCOP(=O)([O-])OC[N+]1(CCCCOc2ccc3ccc(=O)[nH]c3c2)CCN(c2cccc3sccc23)CC1)c1ccc([N+](=O)[O-])cc1 [EX 85]
Reply: 0.00

* * *

protocol_text: Study for confirmation of conversion to brexpiprazole in a buffer (stability of the evaluation compounds)
Format: physicochemical
assay_context: in buffer; decrease in 60-minute vs 0-minute reaction sample; average of duplicate
Hi! Just check whether Concentration of evaluation compound decreased is below 50 nM. Below gives t, equal or above gives f.

smiles_repr: COc1ccc(C(=O)OCCCCCCOP(=O)([O-])OC[N+]2(CCCCOc3ccc4ccc(=O)[nH]c4c3)CCN(c3cccc4sccc34)CC2)cc1
class_label: t
//
smiles_repr: CC1(C)OCC(C(=O)OCOP(=O)([O-])OC[N+]2(CCCCOc3ccc4ccc(=O)[nH]c4c3)CCN(c3cccc4sccc34)CC2)CO1
class_label: f
//
smiles_repr: CC(C)NC(=O)CCCCCCCCC(=O)OCOP(=O)([O-])OC[N+]1(CCCCOc2ccc3ccc(=O)[nH]c3c2)CCN(c2cccc3sccc23)CC1
class_label: t

Task item: Dear reviewer, please state whether COCCOCCOCCOC(=O)OCOP(=O)([O-])OC[N+]1(CCCCOc2ccc3ccc(=O)[nH]c3c2)CCN(c2cccc3sccc23)CC1 has Concentration of evaluation compound decreased strictly beneath 50 nM.
Reply: t

* * *

protocol_text: Study for confirmation of conversion to brexpiprazole in a buffer (stability of the evaluation compounds)
Format: physicochemical
assay_context: in buffer; 60-minute reaction sample; average of duplicate
Each entry below lists one item and its recorded Concentration of brexpiprazole formed value.
The figure you give is taken to be in nM; do not add the unit.

smiles_repr: CCOC(=O)CC(C)(C)CC(=O)OCOP(=O)([O-])OC[N+]1(CCCCOc2ccc3ccc(=O)[nH]c3c2)CCN(c2cccc3sccc23)CC1
units: nM
value_observed: 0

smiles_repr: CN1CCN(CCOP(=O)([O-])OC[N+]2(CCCCOc3ccc4ccc(=O)[nH]c4c3)CCN(c3cccc4sccc34)CC2)CC1
units: nM
value_observed: 0

smiles_repr: CCCC(=O)OCOP(=O)([O-])OC[N+]1(CCCCOc2ccc3ccc(=O)[nH]c3c2)CCN(c2cccc3sccc23)CC1
units: nM
value_observed: 0

Now consider the entry below.
Task item: Hello, please tell me recorded Concentration of brexpiprazole formed for this one: CCOC(=O)CCCCCOC(=O)OCOP(=O)([O-])OC[N+]1(CCCCOc2ccc3ccc(=O)[nH]c3c2)CCN(c2cccc3sccc23)CC1
Reply: 0

* * *

protocol_text: Study for confirmation of conversion to brexpiprazole in a buffer (stability of the evaluation compounds)
Format: physicochemical
assay_context: in buffer; decrease in 60-minute vs 0-minute reaction sample; average of duplicate
Below, each entry is listed alongside its reported Concentration of evaluation compound decreased.
Write the answer as a number in nM, unit excluded.

compound: CCOCCOC(=O)[C@@H](C)OP(=O)([O-])OC[N+]1(CCCCOc2ccc3ccc(=O)[nH]c3c2)CCN(c2cccc3sccc23)CC1 [EX 109]
value_observed: -20

compound: CCOC(=O)CCCC(=O)OCOP(=O)([O-])OC[N+]1(CCCCOc2ccc3ccc(=O)[nH]c3c2)CCN(c2cccc3sccc23)CC1 [EX 68]
value_observed: 90

compound: O=c1ccc2ccc(OCCCC[N+]3(COP(=O)([O-])OCCCOc4ccccc4)CCN(c4cccc5sccc45)CC3)cc2[nH]1 [EX 84]
value_observed: 10

Please examine the following record next.
Task item: Entry CCOCCOP(=O)([O-])OC[N+]1(CCCCOc2ccc3ccc(=O)[nH]c3c2)CCN(c2cccc3sccc23)CC1 [EX 94] needs its Concentration of evaluation compound decreased filled in; supply it.
Reply: -70

* * *

protocol_text: Study for confirmation of conversion to brexpiprazole in a buffer (stability of the evaluation compounds)
Assay type: physicochemical
assay_context: in buffer; decrease in 60-minute vs 0-minute reaction sample; average of duplicate
observation_type: Concentration of evaluation compound decreased (nM)
The answer is to be given in nM; state only the numeric part.

As a guide, the following entries are already answered.
smiles_repr: O=c1ccc2ccc(OCCCC[N+]3(COP(=O)([O-])OCCCCO)CCN(c4cccc5sccc45)CC3)cc2[nH]1
value_observed: -20
--
smiles_repr: COCCNP(=O)([O-])OC[N+]1(CCCCOc2ccc3ccc(=O)[nH]c3c2)CCN(c2cccc3sccc23)CC1
value_observed: 10
--
smiles_repr: O=c1ccc2ccc(OCCCC[N+]3(COP(=O)([O-])OCCCCCCCO)CCN(c4cccc5sccc45)CC3)cc2[nH]1
value_observed: 70

Attention now turns to another entry.
Task item: Look up and state reported Concentration of evaluation compound decreased for CC(C)(C)[Si](C)(C)OCCCCOP(=O)([O-])OC[N+]1(CCCCOc2ccc3ccc(=O)[nH]c3c2)CCN(c2cccc3sccc23)CC1
Reply: 90

* * *

protocol_text: Study for confirmation of conversion to brexpiprazole in a buffer (stability of the evaluation compounds)
Assay type: physicochemical
assay_context: in buffer; decrease in 60-minute vs 0-minute reaction sample; average of duplicate
Reported Concentration of evaluation compound decreased is given for each of the following molecules.
Numeric only. Scale: nM

Task item: Give the reported Concentration of evaluation compound decreased for this molecule. C[C@H](NP(=O)([O-])OC[N+]1(CCCCOc2ccc3ccc(=O)[nH]c3c2)CCN(c2cccc3sccc23)CC1)C(=O)OC(C)(C)C
Reply: 80

Task item: Tell me measured Concentration of evaluation compound decreased for COCCC(=O)OCOP(=O)([O-])OC[N+]1(CCCCOc2ccc3ccc(=O)[nH]c3c2)CCN(c2cccc3sccc23)CC1 please.
Reply: -70

Task item: Using the record for O=C(OCOP(=O)([O-])OC[N+]1(CCCCOc2ccc3ccc(=O)[nH]c3c2)CCN(c2cccc3sccc23)CC1)C1CCOCC1 , state its measured Concentration of evaluation compound decreased.
Reply: 40

Task item: Consider the molecule COCCN(CCOC)P(=O)([O-])OC[N+]1(CCCCOc2ccc3ccc(=O)[nH]c3c2)CCN(c2cccc3sccc23)CC1 . State its measured Concentration of evaluation compound decreased.
Reply: -10

Task item: Give Concentration of evaluation compound decreased for O=c1ccc2ccc(OCCCC[N+]3(COP(=O)([O-])OCCCCCO)CCN(c4cccc5sccc45)CC3)cc2[nH]1
Reply: 110

* * *

protocol_text: Study for confirmation of conversion to brexpiprazole in a buffer (stability of the evaluation compounds)
Format: physicochemical
assay_context: in buffer; decrease in 60-minute vs 0-minute reaction sample; average of duplicate
# Concentration of evaluation compound decreased per entry
Don't forget the unit after the number, please.

Task item: Quote Concentration of evaluation compound decreased reported for CCOC(=O)[C@@H](C)OP(=O)([O-])OC[N+]1(CCCCOc2ccc3ccc(=O)[nH]c3c2)CCN(c2cccc3sccc23)CC1 please.
Reply: -10 nM

Task item: Input O=C(OCCCCCCOP(=O)([O-])OC[N+]1(CCCCOc2ccc3ccc(=O)[nH]c3c2)CCN(c2cccc3sccc23)CC1)c1ccccc1 , output reported Concentration of evaluation compound decreased.
Reply: 90 nM

Task item: Supply recorded Concentration of evaluation compound decreased for O=c1ccc2ccc(OCCCC[N+]3(COP(=O)([O-])OCC4(CO)CC4)CCN(c4cccc5sccc45)CC3)cc2[nH]1 here.
Reply: 0 nM

Task item: Retrieve Concentration of evaluation compound decreased measured for CC1(C)OCC(COC(=O)CCCCC(=O)OCOP(=O)([O-])OC[N+]2(CCCCOc3ccc4ccc(=O)[nH]c4c3)CCN(c3cccc4sccc34)CC2)CO1 and print it.
Reply: 70 nM

Task item: Give the value of Concentration of evaluation compound decreased reported for the following: CC(=O)OCCCCCCOP(=O)([O-])OC[N+]1(CCCCOc2ccc3ccc(=O)[nH]c3c2)CCN(c2cccc3sccc23)CC1
Reply: 80 nM

* * *

Each item that follows carries a reported Concentration of evaluation compound decreased.
protocol_text: Study for confirmation of conversion to brexpiprazole in a buffer (stability of the evaluation compounds)
Type: physicochemical
assay_context: in buffer; decrease in 60-minute vs 0-minute reaction sample; average of duplicate
Reply with just the number (in nM).

Worked set:
smiles_repr: CCOC(=O)OCOP(=O)([O-])OC[N+]1(CCCCOc2ccc3ccc(=O)[nH]c3c2)CCN(c2cccc3sccc23)CC1
units: nM
value_observed: 90
//
smiles_repr: CC(C)(C)OP(=O)([O-])OC[N+]1(CCCCOc2ccc3ccc(=O)[nH]c3c2)CCN(c2cccc3sccc23)CC1
units: nM
value_observed: 20
//
smiles_repr: CCOC(=O)CC(C)(C)CC(=O)OCOP(=O)([O-])OC[N+]1(CCCCOc2ccc3ccc(=O)[nH]c3c2)CCN(c2cccc3sccc23)CC1
units: nM
value_observed: 10

--- query ---
Task item: Determine from records and report Concentration of evaluation compound decreased for CCOC(=O)C1CCN(CCOP(=O)([O-])OC[N+]2(CCCCOc3ccc4ccc(=O)[nH]c4c3)CCN(c3cccc4sccc34)CC2)CC1
Reply: 70
